SYSTEM NAME: M1 muscarinic acetylcholine receptor (M1 mAChR) (Homo sapiens, UniProt P11229)
Sequence (P11229 whole entry): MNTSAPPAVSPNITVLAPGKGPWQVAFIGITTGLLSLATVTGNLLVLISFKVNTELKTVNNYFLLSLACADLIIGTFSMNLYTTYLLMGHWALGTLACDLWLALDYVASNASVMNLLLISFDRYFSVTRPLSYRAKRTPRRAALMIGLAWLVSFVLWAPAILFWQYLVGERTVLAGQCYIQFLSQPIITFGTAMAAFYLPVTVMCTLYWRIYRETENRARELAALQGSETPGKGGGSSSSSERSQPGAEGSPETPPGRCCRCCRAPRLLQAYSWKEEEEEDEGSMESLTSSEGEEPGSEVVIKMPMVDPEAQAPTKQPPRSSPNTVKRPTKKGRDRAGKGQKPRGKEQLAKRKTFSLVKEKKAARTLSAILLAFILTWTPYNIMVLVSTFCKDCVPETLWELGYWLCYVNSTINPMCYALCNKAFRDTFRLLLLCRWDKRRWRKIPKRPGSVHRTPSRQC
ASSAY PROTOCOL: intracellular calcium mobilization in M1-CHO cells
RECORDED METRIC: EC50 (nM)
Give bare numbers, in nM.

// sample CCCCC1CCN(CCCN2C(=O)COc3cc(F)ccc32)CC1 , its EC50 was 146
